As shown below, each of these compounds has a reported Average (percentage cell inhibition), Mastoparan PBMC value.
Test system: PBMC
experimental setup: 12.5 µM
// return numeric value only (unit: %, not printed)

{"compound": "CC[C@H](C)[C@H](N)C(=O)N[C@@H](CC(N)=O)C(=O)N[C@@H](CC(C)C)C(=O)N[C@@H](CCCCN)C(=O)N[C@@H](C)C(=O)N[C@@H](CC(C)C)C(=O)N[C@@H](Cc1c[nH]cn1)C(=O)N[C@@H](C)C(=O)N[C@@H](CC(C)C)C(=O)N[C@@H](C)C(=O)N[C@@H](CCCCN)C(=O)N[C@@H](CCCCN)C(=O)N[C@H](C(=O)N[C@@H](CC(C)C)C(N)=O)[C@@H](C)CC [H7]", "numeric value": 4.935}
{"compound": "CC[C@H](C)[C@H](N)C(=O)N[C@@H](CC(N)=O)C(=O)N[C@@H](CC(C)C)C(=O)N[C@@H](CCCCN)C(=O)N[C@@H](C)C(=O)N[C@@H](CC(C)C)C(=O)N[C@@H](C)C(=O)N[C@@H](C)C(=O)N[C@@H](CC(C)C)C(=O)N[C@@H](C)C(=O)N[C@H](C(=O)N[C@@H](CCCCN)C(=O)N[C@H](C(=O)N[C@@H](CC(C)C)C(N)=O)[C@@H](C)CC)[C@@H](C)O [T11]", "numeric value": 10.2886}

What the record says about CC[C@H](C)[C@H](N)C(=O)N[C@@H](CC(N)=O)C(=O)N[C@@H](CC(C)C)C(=O)N[C@@H](CCCCN)C(=O)N[C@@H](C)C(=O)N[C@@H](CC(C)C)C(=O)N[C@@H](C)C(=O)N[C@H](C(=O)N[C@@H](CC(C)C)C(=O)N[C@@H](C)C(=O)N[C@@H](CCCCN)C(=O)N[C@@H](CCCCN)C(=O)N[C@H](C(=O)N[C@@H](CC(C)C)C(N)=O)[C@@H](C)CC)[C@@H](C)CC [I8] : Average (percentage cell inhibition), Mastoparan PBMC is 17.9616

What the record says about CC[C@H](C)[C@H](N)C(=O)N[C@@H](CC(N)=O)C(=O)N[C@@H](CC(C)C)C(=O)N[C@@H](CCCCN)C(=O)N[C@@H](C)C(=O)N[C@@H](CC(C)C)C(=O)N[C@@H](C)C(=O)N[C@@H](C)C(=O)N[C@@H](CC(C)C)C(=O)N[C@@H](C)C(=O)N[C@@H](CCCCN)C(=O)N[C@@H](CCCCN)C(=O)N[C@@H](CO)C(=O)N[C@@H](CC(C)C)C(N)=O [S13] : Average (percentage cell inhibition), Mastoparan PBMC is -6.27

What the record says about CC[C@H](C)[C@H](N)C(=O)N[C@@H](CC(N)=O)C(=O)N[C@@H](CC(C)C)C(=O)N[C@@H](CCCCN)C(=O)N[C@@H](C)C(=O)N[C@@H](CC(C)C)C(=O)N[C@@H](C)C(=O)N[C@@H](C)C(=O)N1CCC[C@H]1C(=O)N[C@@H](C)C(=O)N[C@@H](CCCCN)C(=O)N[C@@H](CCCCN)C(=O)N[C@H](C(=O)N[C@@H](CC(C)C)C(N)=O)[C@@H](C)CC [P9] : Average (percentage cell inhibition), Mastoparan PBMC is -6.87

What the record says about CC[C@H](C)[C@H](N)C(=O)N[C@@H](CC(N)=O)C(=O)N[C@@H](CC(C)C)C(=O)N[C@@H](CCCCN)C(=O)N[C@@H](C)C(=O)N[C@@H](CC(C)C)C(=O)N[C@@H](C)C(=O)N[C@@H](C)C(=O)N[C@@H](CC(C)C)C(=O)N[C@@H](C)C(=O)N[C@@H](CCCNC(=N)N)C(=O)N[C@@H](CCCCN)C(=O)N[C@H](C(=O)N[C@@H](CC(C)C)C(N)=O)[C@@H](C)CC [R11] : Average (percentage cell inhibition), Mastoparan PBMC is 5.503
